Test: in vitro
Conditions: human, leucocytes, % of dead cells (Average of 2 determinations), 48 hours; C6 = 10.0 μg/ml; no PHA
MEASUREMENT_KIND: cytotoxicity at 48 h (%)
Express it in %; write the number only.

INSERT INTO assay_data (molecule, result_value) VALUES
  ('COc1cc2c(c(OC)c1OC)-c1ccc(SC)c(=O)cc1C(NC(=O)C13CC4CC(CC(C4)C1)C3)CC2 (single isomer, unassigned) [Derivative, N-desacetyl-N-adamantoyl-thiocolchicine]', 91);

*Q* Given the molecule COc1cc2c(c(OC)c1OC)-c1ccc(OC)c(=O)cc1[C@@H](NC(C)=O)CC2 [Colchicine, colchicine, reference compound] , what is its reported cytotoxicity at 48 h?
*A* 92
